# target.entity: T1, hIL-4Rα on cells (human, UniProt P24394 26-825)
# T1 sequence: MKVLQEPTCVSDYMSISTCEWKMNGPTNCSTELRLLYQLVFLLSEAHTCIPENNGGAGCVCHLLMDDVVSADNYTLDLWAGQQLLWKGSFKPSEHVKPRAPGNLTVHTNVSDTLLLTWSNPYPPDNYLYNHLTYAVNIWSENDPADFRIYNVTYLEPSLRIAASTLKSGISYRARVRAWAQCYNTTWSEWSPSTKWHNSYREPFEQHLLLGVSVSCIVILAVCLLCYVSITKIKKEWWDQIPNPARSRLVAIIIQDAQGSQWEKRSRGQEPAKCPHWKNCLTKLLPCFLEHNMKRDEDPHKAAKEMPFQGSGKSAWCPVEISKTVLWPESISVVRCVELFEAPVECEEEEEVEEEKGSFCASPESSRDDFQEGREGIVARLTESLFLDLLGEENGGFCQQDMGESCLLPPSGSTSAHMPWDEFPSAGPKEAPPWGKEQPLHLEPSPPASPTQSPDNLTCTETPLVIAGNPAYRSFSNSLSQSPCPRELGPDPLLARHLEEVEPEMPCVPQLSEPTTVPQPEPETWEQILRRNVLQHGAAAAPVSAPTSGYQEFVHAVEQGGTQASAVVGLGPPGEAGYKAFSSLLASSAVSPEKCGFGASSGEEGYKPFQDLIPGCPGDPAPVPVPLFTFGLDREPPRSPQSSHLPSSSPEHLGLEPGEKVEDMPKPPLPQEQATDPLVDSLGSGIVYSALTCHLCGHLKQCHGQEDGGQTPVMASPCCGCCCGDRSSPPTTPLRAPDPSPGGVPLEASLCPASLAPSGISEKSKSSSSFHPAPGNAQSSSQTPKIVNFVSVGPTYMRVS
# assay.comment: FACS on HEK293 cells, competitor biotin-hIL-13;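 note: stably transduced cells co-expressing both receptor chains, stained cold, with cell-bound signal read as mean fluorescence intensity by flow cytometry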
So I've got a bunch of binders here, and I need their Relative Blockade of IL-13 Binding IC50 values.

Please supply the value of reported Relative Blockade of IL-13 Binding IC50 for the item Construct 35 (mAb467) (antibody, IgG4, V domains shown, VH/VL only) VH: EVQLVESGGGLEQPGGSLRLSCAGSGFTFRTYAMTWVRQAPGKGLEWVSSISGSGGNTYYADSVKGRFTISRDNSKNTLYLQMNSLRAEDTAVYYCAKDRVSITIRPRYYGLDVWGQGTTVTVSS VL: DIVMTQSPLSLPVTPGEPASISCTSSQSLLYSIGKNYVDWYLQKSGQSPQLLIYEGNNRATGVPDRFSGSGSGTDFTLKISRVEAEDVGFYYCMQSLTSPYTFGQGTKLEIK
1.25 relative to dupilumab

Please supply the value of reported Relative Blockade of IL-13 Binding IC50 for the item Construct 33 (mAb450) (antibody, IgG4, V domains shown, VH/VL only) VH: EVQLVESGGGLEQPGGSLRLSCAGSGFTFRDFAMTWVRQAPGKGLEWVSSISGSGGNIYYADSVKGRFTISRDNSKNTLYLQMNSLRAEDTAVYYCAKDRVSITIRPRYYGLDVWGQGTTVTVSS VL: DIVMTQSPLSLPVTPGEPASISCTASQSLLYSIGYNYVDWYLQKSGQSPQLLIYLGSKRASGVPDRFSGSGSGTDFTLKISRVEAEDVGFYYCMQALGSPYTFGQGTKLEIK
1.21 relative to dupilumab

Please supply the value of reported Relative Blockade of IL-13 Binding IC50 for the item Construct 42 (mAb481) (antibody, IgG4, V domains shown, VH/VL only) VH: EVQLVESGGGLEQPGGSLRLSCAGSGFTFRTYAMTWVRQAPGKGLEWVSSISGDGSNTYYADSVKGRFTISRDNSKNTLYLQMNSLRAEDTAVYYCAKDRVSITIRPRYYGLDVWGQGTTVTVSS VL: DIVMTQSPLSLPVTPGEPASISCTASQSLLYSIGYNYVDWYLQKSGQSPQLLIYLGNKRASGVPDRFSGSGSGTDFTLKISRVEAEDVGFYYCMQALTTPYTFGQGTKLEIK
1.34 relative to dupilumab

Please supply the value of reported Relative Blockade of IL-13 Binding IC50 for the item Construct 43 (mAb482) (antibody, IgG4, V domains shown, VH/VL only) VH: EVQLVESGGGLEQPGGSLRLSCAGSGFTFRDFAMTWVRQAPGKGLEWVSSISGGGGNTYYADSVKGRFTISRDNSKNTLYLQMNSLRAEDTAVYYCAKDRLSIAVRPRYYGLDVWGQGTTVTVSS VL: DIVMTQSPLSLPVTPGEPASISCTSSQSLLYSIGYNYVDWYLQKSGQSPQLLIYLGSKRASGVPDRFSGSGSGTDFTLKISRVEAEDVGFYYCMQSLTSPYTFGQGTKLEIK
1.13 relative to dupilumab

Please supply the value of reported Relative Blockade of IL-13 Binding IC50 for the item Construct 25 (mAb433) (antibody, IgG4, V domains shown, VH/VL only) VH: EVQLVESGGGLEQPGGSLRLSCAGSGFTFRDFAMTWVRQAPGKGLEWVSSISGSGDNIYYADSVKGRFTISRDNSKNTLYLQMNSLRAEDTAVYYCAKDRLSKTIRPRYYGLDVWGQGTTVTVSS VL: DIVMTQSPLSLPVTPGEPASISCTASQSLLYSIGYNYLDWYLQKSGQSPQLLIYEGNKRASGVPDRFSGSGSGTDFTLKISRVEAEDVGFYYCMQSLTSPYTFGQGTKLEIK
1.09 relative to dupilumab

Please supply the value of reported Relative Blockade of IL-13 Binding IC50 for the item Construct 41 (mAb478) (antibody, IgG4, V domains shown, VH/VL only) VH: EVQLVESGGGLEQPGGSLRLSCAGSGFTFRDFAMTWVRQAPGKGLEWVSSISGGGGNTYYADSVKGRFTISRDNSKNTLYLQMNSLRAEDTAVYYCAKDRVSITIRPRYYGLDVWGQGTTVTVSS VL: DIVMTQSPLSLPVTPGEPASISCTASQSLLYSIGYNYVDWYLQKSGQSPQLLIYLGNKRASGVPDRFSGSGSGTDFTLKISRVEAEDVGFYYCMQAYNSPYTFGQGTKLEIK
1.15 relative to dupilumab
